- Tested on: human T-type calcium channel
- Protocol notes: Whole-cell patch clamp measurement of T-type calcium channel inhibition (barium T-current)
- Assay type: cell-based
- Condition details: IC50 as percentage of the IC50 of 6-prenylnaringenin; measured as in Example 1
Reported endpoint: Ratio of IC50 value to IC50 value of 6-prenylnaringenin (%)

Study these solved cases before continuing.
CC(C)=CCc1c(O)cc2c(c1O)C(=O)CC(c1ccccc1O)O2 (stereo not shown) = 12.2
O=C1CC(c2ccc(O)cc2)Oc2cc(O)c(CC=C3CCCC3)c(O)c21 (stereo not shown) = 9.0
CC(C)CCc1c(O)cc2c(c1O)C(=O)CC(c1ccc(O)cc1)O2 (stereo not shown) = 10.6

P. CCC(=CCc1c(O)cc2c(c1O)C(=O)CC(c1ccccc1O)O2)CC (stereo not shown)
Q. CC(C)=CCc1c(O)cc2c(c1O)C(=O)CC(c1ccc(O)c(O)c1)O2 (stereo not shown)
R. CC(C)=CCc1c(O)cc2c(c1O)C(=O)CC(c1cccc(O)c1)O2 (stereo not shown)
S. CCCC(=CCc1c(O)cc2c(c1O)C(=O)CC(c1ccc(O)cc1)O2)CCC (stereo not shown)
stdin: Put the items in sequence by Ratio of IC50 value to IC50 value of 6-prenylnaringenin (%), from largest down. Please respond with the labels ordered as the question requires.
stdout: Q, S, R, P
